Data credit: patent US10428140B2

- tested-system: T1, human EphA4 (binding to human Ephrin A5) (Homo sapiens, UniProt P54764)
- T1 construct: made in house; not restated for the human SEAP-His protein
- T1 sequence (P54764 20-547): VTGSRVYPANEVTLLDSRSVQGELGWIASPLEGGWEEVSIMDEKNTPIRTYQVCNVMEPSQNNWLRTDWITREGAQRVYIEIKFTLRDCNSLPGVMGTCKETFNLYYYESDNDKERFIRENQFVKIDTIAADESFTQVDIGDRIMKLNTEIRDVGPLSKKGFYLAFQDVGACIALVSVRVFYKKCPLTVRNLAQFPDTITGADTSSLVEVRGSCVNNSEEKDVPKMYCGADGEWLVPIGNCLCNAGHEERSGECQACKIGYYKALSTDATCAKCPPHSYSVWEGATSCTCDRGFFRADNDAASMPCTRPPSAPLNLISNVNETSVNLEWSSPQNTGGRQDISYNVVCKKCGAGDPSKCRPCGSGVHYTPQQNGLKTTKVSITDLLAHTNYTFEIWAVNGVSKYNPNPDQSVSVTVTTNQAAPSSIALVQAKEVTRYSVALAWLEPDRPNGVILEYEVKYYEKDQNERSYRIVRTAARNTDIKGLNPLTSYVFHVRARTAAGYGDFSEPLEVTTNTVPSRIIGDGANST
- assay-overview: Human EphA4-human ligand binding inhibition ELISA of humanized antibodies (biotinylated Ephrin A5-Fc)
- condition-details: biotinylated human Ephrin A5-Fc 0.7 nM
endpoint: IC50 (nM)
Please give a number only; it is taken to be in nM.

stdin: What does the data say about its IC50? Entry: 73 (antibody, V domains shown, synthetic humanized antibody heavy chain variable region sequence; synthetic humanized antibody light chain variable region sequence) VH: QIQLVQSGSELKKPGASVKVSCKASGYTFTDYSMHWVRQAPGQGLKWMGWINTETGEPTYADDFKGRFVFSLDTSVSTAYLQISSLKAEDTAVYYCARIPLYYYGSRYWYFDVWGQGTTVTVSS VL: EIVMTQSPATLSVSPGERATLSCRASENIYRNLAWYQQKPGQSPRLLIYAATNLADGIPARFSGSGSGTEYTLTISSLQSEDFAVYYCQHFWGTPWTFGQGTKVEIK
stdout: 2.4

stdin: What does the data say about its IC50? Entry: 159 (antibody, V domains shown, synthetic humanized antibody heavy chain variable region sequence; synthetic humanized antibody light chain variable region sequence) VH: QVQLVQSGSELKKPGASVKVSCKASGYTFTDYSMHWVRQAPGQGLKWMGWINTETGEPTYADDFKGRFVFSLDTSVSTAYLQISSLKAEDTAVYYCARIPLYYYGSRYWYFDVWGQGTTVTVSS VL: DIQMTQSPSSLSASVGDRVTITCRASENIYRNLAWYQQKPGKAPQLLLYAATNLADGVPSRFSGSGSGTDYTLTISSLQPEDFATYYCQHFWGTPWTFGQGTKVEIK
stdout: 2.6

stdin: What does the data say about its IC50? Entry: 135 (antibody, V domains shown, synthetic humanized antibody heavy chain variable region sequence; synthetic humanized antibody light chain variable region sequence) VH: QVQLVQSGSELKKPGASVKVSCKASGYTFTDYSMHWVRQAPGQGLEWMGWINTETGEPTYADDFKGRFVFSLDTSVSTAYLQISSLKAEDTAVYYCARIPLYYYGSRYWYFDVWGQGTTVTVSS VL: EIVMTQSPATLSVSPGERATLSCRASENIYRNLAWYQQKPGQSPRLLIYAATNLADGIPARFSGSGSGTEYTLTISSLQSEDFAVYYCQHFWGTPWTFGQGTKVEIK
stdout: 2.5

stdin: What does the data say about its IC50? Entry: 151 (antibody, V domains shown, synthetic humanized antibody heavy chain variable region sequence; synthetic humanized antibody light chain variable region sequence) VH: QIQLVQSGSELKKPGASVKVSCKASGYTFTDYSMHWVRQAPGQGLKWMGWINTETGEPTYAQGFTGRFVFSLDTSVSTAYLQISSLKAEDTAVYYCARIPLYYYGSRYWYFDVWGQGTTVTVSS VL: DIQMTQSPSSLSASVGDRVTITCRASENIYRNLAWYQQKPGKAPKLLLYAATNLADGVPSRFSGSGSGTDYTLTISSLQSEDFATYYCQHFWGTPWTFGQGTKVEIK
stdout: 2

stdin: What does the data say about its IC50? Entry: 87 (antibody, V domains shown, constant regions without entry; synthetic humanized antibody light chain variable region sequence; synthetic humanized antibody heavy chain variable region sequence) VL: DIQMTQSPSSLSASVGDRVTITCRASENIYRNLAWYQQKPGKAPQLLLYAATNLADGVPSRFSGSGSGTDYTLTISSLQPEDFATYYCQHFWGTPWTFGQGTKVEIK VH: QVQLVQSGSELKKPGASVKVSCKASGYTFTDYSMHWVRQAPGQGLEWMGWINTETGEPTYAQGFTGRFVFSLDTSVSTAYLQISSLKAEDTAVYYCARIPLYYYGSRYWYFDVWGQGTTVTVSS
stdout: 3

stdin: What does the data say about its IC50? Entry: 93 (antibody, V domains shown, constant regions without entry; synthetic humanized antibody light chain variable region sequence; synthetic humanized antibody heavy chain variable region sequence) VL: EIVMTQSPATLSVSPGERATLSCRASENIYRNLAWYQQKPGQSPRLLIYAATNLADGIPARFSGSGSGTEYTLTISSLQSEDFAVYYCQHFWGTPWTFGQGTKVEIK VH: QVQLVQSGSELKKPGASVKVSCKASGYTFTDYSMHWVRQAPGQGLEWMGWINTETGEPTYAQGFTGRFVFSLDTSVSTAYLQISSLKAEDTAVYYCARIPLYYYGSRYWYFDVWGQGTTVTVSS
stdout: 2.5

stdin: What does the data say about its IC50? Entry: 157 (antibody, V domains shown, synthetic humanized antibody heavy chain variable region sequence; synthetic humanized antibody light chain variable region sequence) VH: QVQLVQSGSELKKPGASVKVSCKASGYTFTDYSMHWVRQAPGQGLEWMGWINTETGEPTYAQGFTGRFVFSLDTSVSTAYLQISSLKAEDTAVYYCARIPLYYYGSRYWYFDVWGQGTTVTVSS VL: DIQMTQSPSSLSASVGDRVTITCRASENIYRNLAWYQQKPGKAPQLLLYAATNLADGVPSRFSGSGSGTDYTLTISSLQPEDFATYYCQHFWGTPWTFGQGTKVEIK
stdout: 2.6

stdin: What does the data say about its IC50? Entry: 156 (antibody, V domains shown, synthetic humanized antibody heavy chain variable region sequence; synthetic humanized antibody light chain variable region sequence) VH: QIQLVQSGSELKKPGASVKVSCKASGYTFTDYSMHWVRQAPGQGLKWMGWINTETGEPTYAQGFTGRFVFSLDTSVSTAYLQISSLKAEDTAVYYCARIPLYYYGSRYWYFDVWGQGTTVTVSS VL: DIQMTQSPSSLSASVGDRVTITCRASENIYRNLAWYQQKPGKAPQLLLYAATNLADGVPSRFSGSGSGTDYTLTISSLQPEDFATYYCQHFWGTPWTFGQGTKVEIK
stdout: 2.5
